Experiment: molar heat capacity at constant pressure
Conditions: 218 K; 101.33 kPa; Crystal 2; Large sample (1 g) DSC
± gives the expanded uncertainty stated by the source.
The entries below come with measured molar heat capacity at constant pressure values attached.
measured_metric: molar heat capacity at constant pressure

# compound, result
measured = [
    ("CCCCCCCCCCCCCCCCCC(N)=O [octadecanamide]", "336.6 ± 5.2 J/K/mol"),
    ("CCCCCCCCCCCC(N)=O [dodecanamide]", "231.8 ± 3.8 J/K/mol"),
    ("CCCCCCCCCCCCCCCC(N)=O [hexadecanamide]", "276.5 ± 4.6 J/K/mol"),
    ("CCCCCCCC(N)=O [octanamide]", "213.2 ± 3.4 J/K/mol"),
    ("CCCCCC(N)=O [hexanamide]", "142.1 ± 2.2 J/K/mol"),
    ("CCCCC(N)=O [pentanamide]", "145.1 ± 2.3 J/K/mol"),
]
